tested on: T-47D breast; assay: NCI tumour cell line growth inhibition, 48 h
Property: TGI; scope: individual molecules

# Molecule, TGI
data = [
    ("Cc1ccccc1C1=C(c2cn(C)c3ccccc23)C(=O)NC1=O", "> 25 µM"),
    ("CCN1c2ccccc2NC(=S)c2c1n[nH]c2-c1ccccc1", "74.5 µM"),
    ("Cc1ncc([N+](=O)[O-])n1CC[N+](C)([O-])CCCCn1ccnc1[N+](=O)[O-] (stereo not drawn)", "> 100 µM"),
    ("COC(=O)C12CCC(C)(C)CC1C1=CCC3C4(C)CC(O)C(O)C(C)(C(=O)OC)C4CCC3(C)C1(CO)CC2 (stereo not drawn)", "24 µM"),
    ("Cn1cc(C2=C(c3c4n(c5ccccc35)CCNC4)C(=O)NC2=O)c2ccccc21", "> 25 µM"),
    ("COC(=O)c1cc(NC(=O)c2cc(NC(=O)c3cc([N+](=O)[O-])n(C)c3)cn2C)cn1C", "> 100 µM"),
    ("N[C@H]1c2c(Br)sc(Br)c2C(=O)[C@H]1O", "50.3 µM"),
    ("CCOC(=O)c1[nH]cc(C)c1-c1cccn1-c1ccc(Cl)cc1[N+](=O)[O-]", "> 100 µM"),
    ("O=C(Cn1c(C(=O)c2ccc(Cl)cc2)nc(-c2ccc(Cl)cc2)c1-c1ccc(Cl)cc1)c1ccccc1", "> 100 µM"),
    ("CC(=O)O[C@H]1C(=O)[C@@]2(C)[C@H]([C@H](OC(=O)c3ccccc3)[C@]3(O)C[C@H](OC(=O)[C@H](O)[C@@H](NC(=O)c4ccccc4)c4ccc5ccccc5c4)C(C)=C1C3(C)C)[C@]1(OC(C)=O)CO[C@@H]1C[C@@H]2O", "> 50 µM"),
    ("O=C(c1ccccc1)N1CCN(C(=S)NC2CCCCC2)C1=S", "53.1 µM"),
    ("Oc1c(CN2CCCC2)ccc2cccnc12", "> 100 µM"),
    ("COc1cc(C2S/C(=C/c3ccccc3)C(=O)N2Cc2ccccc2)cc(OC)c1OC (stereo not drawn)", "41.1 µM"),
    ("COc1cccc2c1NC(=O)Cc1c-2[nH]c2ccccc12", "> 100 µM"),
    ("C[C@H](c1ccc(F)cc1CCCC(=O)O)N(c1cc(F)ccc1F)S(=O)(=O)c1ccc(Cl)cc1", "> 83.9 µM"),
    ("Cc1ccc([Se](=C(C(=O)c2ccccc2)C(=O)c2ccccc2)c2ccc(C)cc2)cc1", "> 100 µM"),
    ("CCOC(=O)/C=C(/C(=O)OCC)n1cc(C)c(=O)n(Cc2cnnn2COCCOC(C)=O)c1=O", "46.7 µM"),
    ("Cc1ccccc1NC(=O)Cc1csc(N/N=C2\\NC(=O)/C(=C/c3cccc([N+](=O)[O-])c3)S2)n1", "55.1 µM"),
]
